System: human PKK mRNA
test_protocol: Dose-dependent antisense inhibition of human PKK in HepaRG cells, 0.19-5.00 uM (Example 5)
Format: cell-based
run_parameters: 0.19 μM, HepaRG cells, electroporation, approximately 16 hours; Table 39
Strand notation (5' to 3'): a small letter for the sugar, then the base; units joined by * are phosphorothioate-linked, units joined directly phosphodiester-linked; [ ] holds rarer units or linkages, { } end groups; capitals alone tell only the bases. e = 2'-O-(2-methoxyethyl) (MOE); [5mC] = 5-methylcytosine; d = 2'-deoxy (DNA)
readout_label: percent inhibition of PKK at 0.19 μM

Example entries begin here.
{"columns": ["substance", "percent inhibition of PKK at 0.19 μM"],
 "data": [
  ["547632 (antisense eT*e[5mC]*eA*e[5mC]*eT*dG*dT*d[5mC]*d[5mC]*dT*dA*dT*dA*dT*d[5mC]*eA*e[5mC]*eT*e[5mC]*eT) [compound 547632]", "44%"],
  ["531231 (eT*eA*eT*e[5mC]*eA*d[5mC]*dT*dG*dT*dA*d[5mC]*dT*dA*dG*dT*eT*eT*e[5mC]*e[5mC]*eT) [compound 531231]", "21%"],
  ["546870 (e[5mC]*eT*eG*eT*eA*d[5mC]*d[5mC]*dT*dA*dT*dA*dA*d[5mC]*dT*d[5mC]*eT*eA*eA*e[5mC]*eA; antisense) [compound 546870]", "35%"]
]}

Next, consider the following substance.
Consider the substance 546876 (eG*eT*e[5mC]*e[5mC]*eT*dA*dT*dA*dT*d[5mC]*dA*d[5mC]*dT*dG*dT*eA*e[5mC]*e[5mC]*eT*eG; antisense) [compound 546876] . State its measured percent inhibition of PKK at 0.19 μM. 0%
